Measured logβ[GaHL]+, listed per entry for reference.
Assay: Ga(III) complex stability constants by Fe(III)–Ga(III) metal–metal competition, potentiometric and UV–vis pH-metric titrations
Format: physicochemical
Conditions: competition UV-Vis titrations, [L] = 1·10^-4 M, M:L 1:1, T = 25°C, I = 0.1 M NaClO4

For the compound shown here, "O=C1CCCN(O)C(=O)CCNC(=O)CCCN(O)C(=O)CCNC(=O)CCCN(O)C(=O)CCN1" , give the reported logβ[GaHL]+.
28.30 (4)

For the compound shown here, "O=C1CCN(O)C(=O)CCNC(=O)CCN(O)C(=O)CCNC(=O)CCN(O)C(=O)CCN1" , give the reported logβ[GaHL]+.
28.48 (4)

For the compound shown here, "O=C1CCCCN(O)C(=O)CCNC(=O)CCCCN(O)C(=O)CCNC(=O)CCCCN(O)C(=O)CCN1" , give the reported logβ[GaHL]+.
28.84 (5)

For the compound shown here, "O=C1CCCCCN(O)C(=O)CCCNC(=O)CCCCCN(O)C(=O)CCCNC(=O)CCCCCN(O)C(=O)CCCN1" , give the reported logβ[GaHL]+.
29.45 (1)
